These entries and their values trace back to ChEMBL document CHEMBL3994622.

# Tested on: PC-3
# assay comment: Growth inhibition of human PC3 cells assessed as cell growth at 10 uM incubated for 48 hrs by sulforhodamine B assay relative to control
# Assay type: functional
# experimental conditions: PC-3, 48 h, read-out: Activity
// growth at 10 µM lookup, one value per entry

{"compound": "COc1cc2cc(Sc3ccc(NC(=O)Nc4ccc(Cl)c(Cl)c4)cc3)c(C)nc2cc1OC", "growth at 10 µM": "56.1%"}
{"compound": "COc1cc2cc(Oc3ccc(NC(=O)Nc4ccc(Cl)c(Cl)c4)cc3)c(C)nc2cc1OC", "growth at 10 µM": "4.12%"}
{"compound": "COc1cc2cc(Oc3ccc(NC(=O)Nc4ccc(C)cc4)cc3)c(C)nc2cc1OC", "growth at 10 µM": "94.5%"}
{"compound": "COc1cc2cc(Oc3ccc(NC(=O)Nc4ccccc4)cc3)c(C)nc2cc1OC", "growth at 10 µM": "60.4%"}
{"compound": "COc1cc2cc(Oc3ccc(NC(=O)Nc4ccc(C(F)(F)F)cc4)cc3)c(C)nc2cc1OC", "growth at 10 µM": "48.3%"}
{"compound": "COc1cc2cc(Oc3ccc(NC(=O)Nc4cccc(C(F)(F)F)c4)cc3)c(C)nc2cc1OC", "growth at 10 µM": "0.08%"}
{"compound": "COc1cc2cc(Oc3ccc(NC(=O)Nc4cc(C(F)(F)F)cc(C(F)(F)F)c4)cc3)c(C)nc2cc1OC", "growth at 10 µM": "6.82%"}
{"compound": "Cc1nc2cc(O)c(O)cc2cc1Oc1ccc(NC(=O)Nc2ccc(Cl)c(Cl)c2)cc1", "growth at 10 µM": "39.3%"}
{"compound": "COc1cc2cc(Oc3ccc(NC(=O)Nc4ccc(Cl)c(C(F)(F)F)c4)cc3)c(C)nc2cc1OC", "growth at 10 µM": "-0.61%"}

* * *

// GI50 lookup, one value per entry
# Test system: HCT-116
# assay comment: Growth inhibition of human HCT116 cells incubated for 48 hrs by sulforhodamine B assay
# Assay type: functional
# experimental conditions: HCT-116, 48 h

{"compound": "COc1cc2cc(Oc3ccc(NC(=O)Nc4ccc(Cl)c(C(F)(F)F)c4)cc3)c(C)nc2cc1OC", "units text": "nM", "GI50": 994}
{"compound": "COc1cc2cc(Oc3ccc(NC(=O)Nc4ccc(Cl)c(Cl)c4)cc3)c(C)nc2cc1OC", "units text": "nM", "GI50": 2260}
{"compound": "Cc1nc2cc(O)c(O)cc2cc1Oc1ccc(NC(=O)Nc2ccc(Cl)c(Cl)c2)cc1", "units text": "nM", "GI50": 2240}
{"compound": "COc1cc2cc(Oc3ccc(NC(=O)Nc4cccc(C(F)(F)F)c4)cc3)c(C)nc2cc1OC", "units text": "nM", "GI50": 1460}

* * *

# System: EKVX
# assay comment: Growth inhibition of human EKVX cells incubated for 48 hrs by sulforhodamine B assay
# Assay type: functional
Note to self: values exactly at 4 µM are 1 (yes). So TGI at or above 4 µM is 1 (yes), below is 0 (no).

{"compound": "COc1cc2cc(Oc3ccc(NC(=O)Nc4ccc(Cl)c(Cl)c4)cc3)c(C)nc2cc1OC", "category": "1 (yes)"}
{"compound": "COc1cc2cc(Oc3ccc(NC(=O)Nc4ccc(Cl)c(C(F)(F)F)c4)cc3)c(C)nc2cc1OC", "category": "0 (no)"}
{"compound": "COc1cc2cc(Oc3ccc(NC(=O)Nc4cccc(C(F)(F)F)c4)cc3)c(C)nc2cc1OC", "category": "1 (yes)"}
{"compound": "CNC(=O)c1cc(Oc2ccc(NC(=O)Nc3ccc(Cl)c(C(F)(F)F)c3)cc2)ccn1 [SORAFENIB]", "category": "1 (yes)"}
{"compound": "COc1cc2cc(Oc3ccc(NC(=O)Nc4cc(C(F)(F)F)cc(C(F)(F)F)c4)cc3)c(C)nc2cc1OC", "category": "0 (no)"}

* * *

// growth at 10 µM lookup, one value per entry
# System: T47D
# assay comment: Growth inhibition of human T47D cells assessed as cell growth at 10 uM incubated for 48 hrs by sulforhodamine B assay relative to control
# Type: functional
# experimental conditions: read-out: Activity

{"compound": "Cc1nc2cc(O)c(O)cc2cc1Oc1ccc(NC(=O)Nc2ccc(Cl)c(Cl)c2)cc1", "growth at 10 µM / %": 62.2}
{"compound": "COc1cc2cc(Oc3ccc(NC(=O)Nc4ccc(Cl)c(Cl)c4)cc3)c(C)nc2cc1OC", "growth at 10 µM / %": 60.9}
{"compound": "COc1cc2cc(Oc3ccc(NC(=O)Nc4ccc(C(F)(F)F)cc4)cc3)c(C)nc2cc1OC", "growth at 10 µM / %": 57.5}
{"compound": "COc1cc2cc(Oc3ccc(NC(=O)Nc4ccc(Cl)c(C(F)(F)F)c4)cc3)c(C)nc2cc1OC", "growth at 10 µM / %": 21.4}
{"compound": "COc1cc2cc(Oc3ccc(NC(=O)Nc4cc(C(F)(F)F)cc(C(F)(F)F)c4)cc3)c(C)nc2cc1OC", "growth at 10 µM / %": 7.52}
{"compound": "COc1cc2cc(Oc3ccc(NC(=O)Nc4cccc(C(F)(F)F)c4)cc3)c(C)nc2cc1OC", "growth at 10 µM / %": 27.8}
{"compound": "COc1cc2cc(Oc3ccc(NC(=O)Nc4ccccc4)cc3)c(C)nc2cc1OC", "growth at 10 µM / %": 97.1}
{"compound": "COc1cc2cc(Oc3ccc(NC(=O)Nc4ccc(C)cc4)cc3)c(C)nc2cc1OC", "growth at 10 µM / %": 101}

* * *

# Test system: ACHN
# assay comment: Growth inhibition of human ACHN cells incubated for 48 hrs by sulforhodamine B assay
# Assay type: functional
# experimental conditions: read-out: LC50 (the source's name)

{"compound": "COc1cc2cc(Oc3ccc(NC(=O)Nc4ccc(Cl)c(C(F)(F)F)c4)cc3)c(C)nc2cc1OC", "CC50": "13.7 µM"}
{"compound": "COc1cc2cc(Oc3ccc(NC(=O)Nc4cccc(C(F)(F)F)c4)cc3)c(C)nc2cc1OC", "CC50": "> 50 µM"}
{"compound": "COc1cc2cc(Oc3ccc(NC(=O)Nc4ccc(Cl)c(Cl)c4)cc3)c(C)nc2cc1OC", "CC50": "69.1 µM"}
{"compound": "Cc1nc2cc(O)c(O)cc2cc1Oc1ccc(NC(=O)Nc2ccc(Cl)c(Cl)c2)cc1", "CC50": "> 32.5 µM"}
{"compound": "COc1cc2cc(Oc3ccc(NC(=O)Nc4cc(C(F)(F)F)cc(C(F)(F)F)c4)cc3)c(C)nc2cc1OC", "CC50": "51.6 µM"}

* * *

# Tested on: SR
# assay comment: Growth inhibition of human SR cells incubated for 48 hrs by sulforhodamine B assay
# Format: functional
// TGI lookup, one value per entry

{"compound": "COc1cc2cc(Oc3ccc(NC(=O)Nc4ccc(Cl)c(Cl)c4)cc3)c(C)nc2cc1OC", "TGI (µM)": 10.3}
{"compound": "CNC(=O)c1cc(Oc2ccc(NC(=O)Nc3ccc(Cl)c(C(F)(F)F)c3)cc2)ccn1 [SORAFENIB]", "TGI (µM)": 63.1}
{"compound": "Cc1nc2cc(O)c(O)cc2cc1Oc1ccc(NC(=O)Nc2ccc(Cl)c(Cl)c2)cc1", "TGI (µM)": 12.3}
{"compound": "COc1cc2cc(Oc3ccc(NC(=O)Nc4cc(C(F)(F)F)cc(C(F)(F)F)c4)cc3)c(C)nc2cc1OC", "TGI (µM)": 5.97}
{"compound": "COc1cc2cc(Oc3ccc(NC(=O)Nc4cccc(C(F)(F)F)c4)cc3)c(C)nc2cc1OC", "TGI (µM)": 3.33}
{"compound": "COc1cc2cc(Oc3ccc(NC(=O)Nc4ccc(Cl)c(C(F)(F)F)c4)cc3)c(C)nc2cc1OC", "TGI (µM)": 2.65}

* * *

// growth at 10 µM lookup, one value per entry
# System: RXF 393
# assay comment: Growth inhibition of human RXF393 cells assessed as cell growth at 10 uM incubated for 48 hrs by sulforhodamine B assay relative to control
# Type: functional
# experimental conditions: RXF 393, 48 h, read-out: Activity

{"compound": "COc1cc2cc(Sc3ccc(NC(=O)Nc4ccc(Cl)c(Cl)c4)cc3)c(C)nc2cc1OC", "units text": "%", "growth at 10 µM": 84.4}
{"compound": "COc1cc2cc(Oc3ccc(NC(=O)Nc4ccccc4)cc3)c(C)nc2cc1OC", "units text": "%", "growth at 10 µM": 76.7}
{"compound": "COc1cc2cc(Oc3ccc(NC(=O)Nc4ccc(C(F)(F)F)cc4)cc3)c(C)nc2cc1OC", "units text": "%", "growth at 10 µM": 6.29}
{"compound": "COc1cc2cc(Oc3ccc(NC(=O)Nc4ccc(Cl)c(Cl)c4)cc3)c(C)nc2cc1OC", "units text": "%", "growth at 10 µM": 22.3}
{"compound": "COc1cc2cc(Oc3ccc(NC(=O)Nc4ccc(Cl)c(C(F)(F)F)c4)cc3)c(C)nc2cc1OC", "units text": "%", "growth at 10 µM": -33.4}
{"compound": "Cc1nc2cc(O)c(O)cc2cc1Oc1ccc(NC(=O)Nc2ccc(Cl)c(Cl)c2)cc1", "units text": "%", "growth at 10 µM": 20.4}
{"compound": "COc1cc2cc(Oc3ccc(NC(=O)Nc4cc(C(F)(F)F)cc(C(F)(F)F)c4)cc3)c(C)nc2cc1OC", "units text": "%", "growth at 10 µM": -24.5}
{"compound": "COc1cc2cc(Oc3ccc(NC(=O)Nc4ccc(C)cc4)cc3)c(C)nc2cc1OC", "units text": "%", "growth at 10 µM": 82.1}
{"compound": "COc1cc2cc(Oc3ccc(NC(=O)Nc4cccc(C(F)(F)F)c4)cc3)c(C)nc2cc1OC", "units text": "%", "growth at 10 µM": -13.1}
